koff by entry:
Biological target: T1, human dimeric EGFR (EGFR.mFc) (human)
T1 construct: Soluble dimeric EGFR construct
Assay: SPR 37C, mAb captured by anti-human Fc, EGFR.mFc analyte
measurementName: koff (s⁻¹)

>  <binder>
H1H0085N (antibody, V domains shown, Tested in human IgG1 Fc format (H1H prefix); first obtained as H1M (mouse IgG1 Fc) from a hybridoma; also called H1M085N; H1H085N) VH: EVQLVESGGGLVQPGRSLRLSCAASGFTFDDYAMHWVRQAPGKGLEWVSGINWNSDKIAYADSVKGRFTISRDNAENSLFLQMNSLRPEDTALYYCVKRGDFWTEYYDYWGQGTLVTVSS VL: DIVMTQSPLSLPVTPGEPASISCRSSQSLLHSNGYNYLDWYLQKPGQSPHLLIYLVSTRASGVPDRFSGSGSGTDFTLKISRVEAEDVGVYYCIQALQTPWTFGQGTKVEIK

>  <measurementName>
koff

>  <reading>
4.05e-05

$$$$
>  <binder>
H1H155P (antibody, human IgG1, V domains shown, Human IgG1 Fc (H1H)) VH: QVQLVESGGGVVQPGRSLRLSCAASGFTFSIYGMHWVRQAPGKGLEWVTVISDDGSKKYYVDSVKGRFTLSRDNSKNTLYLQMNSLRAEDTAVYYCARDRITGTNWYGMDVWGQGTTVTVSS VL: DIQMTQSPSSLSASVGDRVTITCRASQDISNYLAWFQQKPGKAPKSLIFAASSLQSGGPSKFSGSGSGTDFTLTISSLQPEDFATYYCQQYNRYPFTFGPGTKVDIK

>  <measurementName>
koff

>  <reading>
0.000106

$$$$
>  <binder>
H1H161P (antibody, human IgG1, V domains shown, Human IgG1 Fc (H1H)) VH: QVQLVESGGGVVQPGRSLRLSCAASGFTFSNYGMYWVRQAPGKGLEWVTFISYDGSNKNYVDSMKGRFTISRDNSKNTLYLQMNSLRVEDTAVYYCAKDRISGTPWYGMDVWGQGTTVTVSS VL: DIQMTQSPSSLSASVGDRVTITCRASQDIADYLAWFQQKPGKAPKSLIFAASSLESWVPLKFSGSGSGTDFTLTISSLQPEDFATYYCQQYSRFPITFGQGTKVEIK

>  <measurementName>
koff

>  <reading>
2.76e-06

$$$$
